- Tested on: caspase-3/7 activity in Hep3B cell line
- experiment-notes: One-step cellular caspase-3/7 activity assay
- Format: cell-based, human
- condition-description: 200 nM, 24 hours; 0 nM = 1.00
Rule: Relative caspase-3/7 activity in Hep3B cell line under 1 gives -1, otherwise 1.

Past entries and their recorded results:
CC(C)(O)CNc1nc(NCc2ccc(-c3ccco3)cc2)c2ncn(C3CCCC3)c2n1 [BP115]
-1
CC(C)(O)CNc1nc(NCc2ccc(-c3ccco3)nc2)c2ncn(C3CCCC3)c2n1 [BP117]
-1
NC1CCC(Nc2nc(NCc3ccc(-c4ccco4)cc3)c3ncn(C4CCCC4)c3n2)CC1 (centres unmarked) [BP4]
1
NC1CCC(Nc2nc(NCc3ccc(-c4ccsc4)cc3)c3ncn(C4CCCC4)c3n2)CC1 (centres unmarked) [BP5]
1

-- ask Hi, just wondering whether NC1CCC(Nc2nc(NCc3ccc(-c4cccc(F)c4)cc3)c3ncn(C4CCCC4)c3n2)CC1 (centres unmarked) [BP12] shows Relative caspase-3/7 activity in Hep3B cell line of 1 or higher.
-- reply 1

-- ask Answer whether Relative caspase-3/7 activity in Hep3B cell line of NC1CCC(Nc2nc(NCc3ccc(-c4ccoc4)nc3)c3ncn(C4CCCC4)c3n2)CC1 (centres unmarked) [BP36] is greater than or equal to 1.
-- reply 1

-- ask Can NC1CCC(Nc2nc(NCc3ccc(-c4ccccc4O)cc3)c3ncn(C4CCCC4)c3n2)CC1 (centres unmarked) [BP17] be said to have Relative caspase-3/7 activity in Hep3B cell line at or above 1?
-- reply -1
